The entries below are paired with their reported Kd.
Biological target: GDP-bound KRAS wild-type protein (Homo sapiens, UniProt P01116)
Sequence (P01116 whole entry): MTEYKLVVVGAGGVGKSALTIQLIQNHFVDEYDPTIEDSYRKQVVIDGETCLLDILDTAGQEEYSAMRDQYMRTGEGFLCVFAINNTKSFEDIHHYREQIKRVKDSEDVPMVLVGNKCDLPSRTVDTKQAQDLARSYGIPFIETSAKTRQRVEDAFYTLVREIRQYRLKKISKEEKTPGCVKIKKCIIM
Assay: Binding to KRAS by surface plasmon resonance (SPR), Single Cycle Kinetics
Settings: SPR, Single Cycle Kinetics, GDP-bound KRAS wild-type protein; read-out: KRAS KD
A number alone suffices; assume nM.

Here is how some molecules turned out for Kd.
molecule	unit_name	measurement
C=CC[C@H]1C(=O)N[C@@H]([C@@H](C)CC)C(=O)N(C)CC(=O)N(C)[C@H]2C/C=C\CCN(C2=O)[C@@H](Cc2ccc(C(F)(F)F)cc2)C(=O)N(C)CC(=O)N[C@@H](CCc2cc(F)c(C(F)(F)F)c(F)c2)C(=O)N2C[C@H](OCC)C[C@H]2C(=O)NC2(CCC2)C(=O)N(C)[C@@H](C2CCCC2)C(=O)N(C)[C@H](C(=O)N(C)C)CC(=O)N1C [PP1114]	nM	0.054
CCO[C@@H]1C[C@H]2C(=O)NC3(CCC3)C(=O)N(C)[C@@H](C3CCCC3)C(=O)N(C)[C@H](C(=O)N(C)C)CC(=O)N(C)[C@@H](Cc3cccc(C#N)c3)C(=O)N[C@@H]([C@@H](C)CC)C(=O)N(C)CC(=O)N(C)[C@H]3CCCCCN(C3=O)[C@@H](Cc3ccc(F)cc3)C(=O)N(C)CC(=O)N[C@@H](CCc3cc(F)c(C(F)(F)F)c(F)c3)C(=O)N2C1 [PP1156]	nM	0.063

# query: Kd of entry CC[C@H](C)[C@@H]1NC(=O)[C@H](CC(C)C)N(C)C(=O)C[C@@H](C(=O)N(C)CC)N(C)C(=O)[C@H](C2CCCC2)N(C)C(=O)C2(CC(C)(C)C2)NC(=O)[C@@H]2C[C@@H](F)CN2C(=O)[C@H](CCc2cc(F)c(C(F)(F)F)c(F)c2)NC(=O)CN(C)C(=O)[C@H](Cc2ccc(C(F)(F)F)cc2)N2CC/C=C\C[C@@H](C2=O)N(C)C(=O)CN(C)C1=O [PP1694]
0.051

----------
Entries and their measured Kd follow.
Biological target: GDP-bound KRAS wild-type protein (Homo sapiens)
Test: Binding to KRAS by surface plasmon resonance (SPR), Single Cycle Kinetics
Conditions: SPR, Single Cycle Kinetics, GDP-bound KRAS wild-type protein; read-out: KRAS KD
Just the number in pM, nothing appended.

Here's what some known entries look like.
record_smiles	unit_name	Kd
CCO[C@@H]1C[C@H]2C(=O)NC3(CC(C)(C)C3)C(=O)N(C)[C@@H](C(CC)CC)C(=O)N(C)[C@H](C(=O)N(C)C)CC(=O)N(C)[C@@H](CC)C(=O)N[C@@H]([C@@H](C)CC)C(=O)N(C)CC(=O)N(C)[C@H]3C/C=C\CCN(C3=O)[C@@H](Cc3ccc(C(F)(F)F)cc3)C(=O)N(C)CC(=O)N[C@@H](CCc3ccc(C(F)(F)F)c(OC)c3)C(=O)N2C1	pM	250
CC[C@H](C)[C@@H]1NC(=O)[C@H](COC)N(C)C(=O)C[C@@H](C(=O)N(CC)CC)N(C)C(=O)[C@H](C2CCCC2)N(C)C(=O)C2(CC(C)(C)C2)NC(=O)[C@@H]2C[C@H](C)CN2C(=O)[C@H](CCc2cc(F)c(C(F)(F)F)c(F)c2)NC(=O)CN(C)C(=O)[C@H](Cc2ccc(C)cc2)N2CC/C=C\C[C@@H](C2=O)N(C)C(=O)CN(C)C1=O	pM	320

Here's the next entry for you.
Look up Kd: CCO[C@@H]1C[C@H]2C(=O)NC3(CCC3)C(=O)N(C)[C@@H](C3CCCC3)C(=O)N(C)[C@H](C(=O)N(C)C)CC(=O)N(C)[C@@H](CC)C(=O)N[C@@H]([C@@H](C)CC)C(=O)N(C)CC(=O)N(C)[C@H]3CCCCN(C3=O)[C@@H](Cc3ccc(C(F)(F)F)cc3)C(=O)N(C)CC(=O)N[C@@H](CCc3ccc4sccc4c3)C(=O)N2C1
93

The measured values listed here are drawn from patent US20240158446A1.
